# reported IC50; entries follow
# system name: Vasopressin V1a receptor (Homo sapiens, UniProt P37288)
# Sequence (P37288 whole entry): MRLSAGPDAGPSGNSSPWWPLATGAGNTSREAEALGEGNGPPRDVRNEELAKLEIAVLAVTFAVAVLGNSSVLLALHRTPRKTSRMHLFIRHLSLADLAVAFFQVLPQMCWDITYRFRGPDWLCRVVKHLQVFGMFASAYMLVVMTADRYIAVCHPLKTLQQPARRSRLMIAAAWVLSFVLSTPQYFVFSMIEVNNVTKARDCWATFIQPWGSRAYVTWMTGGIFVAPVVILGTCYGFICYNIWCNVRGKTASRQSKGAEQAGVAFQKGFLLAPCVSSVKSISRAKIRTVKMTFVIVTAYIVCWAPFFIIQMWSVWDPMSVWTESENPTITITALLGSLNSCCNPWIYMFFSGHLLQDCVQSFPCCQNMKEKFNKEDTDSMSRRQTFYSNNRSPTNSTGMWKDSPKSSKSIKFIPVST
# protocol details: Radioligand Binding Assay to HeLa Cells
measurement kind: IC50

INSERT INTO assay_data (compound, result) VALUES
  ('COc1cc(NC(=O)c2ccccc2C)ccc1C(=O)N1CCCC(O)c2cc(Cl)ccc21 (configuration not stated) [benzazepine derivative, 33]', '39 nM'),
  ('COc1cc(C(=O)N2CCCC(O)c3cc(Cl)ccc32)ccc1NC(=O)c1ccccc1C (configuration not stated) [benzazepine derivative, 34]', '7 nM');

* * *

# reported pIC50; entries follow
# system name: Vasopressin V2 receptor (Homo sapiens)
# Sequence (P30518 whole entry): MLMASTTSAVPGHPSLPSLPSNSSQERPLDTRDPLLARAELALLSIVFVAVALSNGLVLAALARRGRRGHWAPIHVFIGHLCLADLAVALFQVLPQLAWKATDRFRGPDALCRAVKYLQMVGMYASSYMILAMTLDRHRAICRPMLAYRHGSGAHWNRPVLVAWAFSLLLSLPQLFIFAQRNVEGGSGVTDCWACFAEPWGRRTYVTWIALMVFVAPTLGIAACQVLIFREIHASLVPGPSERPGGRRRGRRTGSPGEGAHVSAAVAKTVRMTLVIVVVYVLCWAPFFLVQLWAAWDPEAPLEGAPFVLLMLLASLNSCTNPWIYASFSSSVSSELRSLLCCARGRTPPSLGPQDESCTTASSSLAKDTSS
pIC50: −log10 of the molar value.
measurement kind: pIC50

INSERT INTO results (compound, numeric_readout) VALUES
  ('COC1CCCN(C(=O)c2ccc(NC(=O)c3ccccc3C)cc2)c2ccc(Cl)cc21 (centres undefined) [benzazepine derivative, 21]', 8.30),
  ('Cc1ccccc1C(=O)Nc1ccc(C(=O)N2CCCC(O)c3cc(Cl)ccc32)c(Cl)c1 (centres undefined) [benzazepine derivative, 30]', 8.10),
  ('Cc1ccccc1C(=O)Nc1ccc(C(=O)N2CCCC(O)c3cc(Cl)ccc32)cc1Cl (centres undefined) [benzazepine derivative, 31]', 7.55),
  ('COc1cc(NC(=O)c2ccccc2C)ccc1C(=O)N1CCCC(O)c2cc(Cl)ccc21 (centres undefined) [benzazepine derivative, 33]', 7.89);
